protocol: NCI Yeast Anticancer Drug Screen. Data for the rad50 strain (AID 155);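 also: 0% = growth of vehicle-only cultures of the same strain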
measurement.context: S. cerevisiae rad50 strain growth inhibition; at 50.0 µM; hits give high values
This is part of a sample that, as a whole, favours compounds with a hit. Of some 79,000 tested, about 15% had one in any assay.
measured.metric: growth inhibition (%)
Number only, in %; omit the unit.

So for COc1ccc2c3c([nH]c2c1)CCN(Cc1ccccc1)C3 , the logged growth inhibition turned out to be -31.1

So for Cc1ccc(S(=O)(=O)c2ccc(C)cc2C(=O)O)cc1 , the logged growth inhibition turned out to be -8.6

So for O=C1OC(=O)C2C3CCC(O3)C12 (configuration not stated) , the logged growth inhibition turned out to be 13.9

So for CCCNC(=O)Nc1ccccc1OCC , the logged growth inhibition turned out to be -3.6

So for CCc1c(C)c(C#N)c(=S)n(C2OC(COC(C)=O)C(OC(C)=O)C(OC(C)=O)C2OC(C)=O)c1-c1ccccc1 (configuration not stated) , the logged growth inhibition turned out to be 2.55

So for O=C1CCC(=O)N2CCCCN12 , the logged growth inhibition turned out to be -4.7

So for CC(=O)OCC1OC(N2C(=O)/C(=C/c3ccc4c(c3)OCO4)SC2=S)C(OC(C)=O)C(OC(C)=O)C1OC(C)=O (configuration not stated) , the logged growth inhibition turned out to be 1.5

So for O=C(O)Cc1n[nH]c(=O)c2ccccc12 , the logged growth inhibition turned out to be -21.1

So for CCOc1ccc(NC(=O)CCc2nnc(SC)o2)cc1 , the logged growth inhibition turned out to be 20.5

So for CCC(=O)OC1C(OC2C(C)C(OC3CC(C)(OC)C(O)C(C)O3)C(C)C(=O)OC(CC)C(C)(O)C(O)C(C)C(=O)C(C)CC2(C)O)OC(C)CC1N(C)C (configuration not stated) , the logged growth inhibition turned out to be -18.1

So for N#CN=CN1CCN(c2ccccc2)CC1 , the logged growth inhibition turned out to be 4.8

* * *

protocol: NCI Yeast Anticancer Drug Screen. Data for the bub3 strain (AID 167)
measurement.context: S. cerevisiae bub3 mutant strain, at 50.0 µM, hits give high values
About 79,000 compounds went through this panel and 15% of them were active in at least one assay; those are over-represented in the sample as a whole.
measured.metric: growth inhibition (%)
Number only, in %; omit the unit.

Examples with answers:
CCCSc1ncnc2c1ncn2COC(=O)NC; 11.3
Cn1nc(NC(=O)c2cc(N)nn2C)cc1C(=O)Nc1ccc2cc(S(=O)(=O)O)cc(S(=O)(=O)O)c2c1; 13.7
CC(=O)Nc1ccc(S(=O)(=O)N/N=C\CC(C)C)cc1; -46

So for N#Cc1ccc(-c2nc3ccc(Cl)cc3[nH]2)cc1 , the logged growth inhibition turned out to be -30.9

So for CC1CC(=O)CC(C)C1 (configuration not stated) , the logged growth inhibition turned out to be 19.9

So for CCOC(=O)CC1(C)c2nc(NC(C)=O)sc2Cc2sc(NC(C)=O)nc21 , the logged growth inhibition turned out to be -2.4

So for CC(=O)Nc1ccc2c(c1)CCCC2 , the logged growth inhibition turned out to be -2.95

So for O=C(c1ccccc1)c1nc2ccc(Cl)cc2cc1C(Br)Br , the logged growth inhibition turned out to be 28.8

So for CCCCOC(=O)c1ccc(NC(=O)CCCN(CC)CC)cc1 , the logged growth inhibition turned out to be 14.4

So for O=C(O)CC(Cc1ccccc1)C(=O)O (configuration not stated) , the logged growth inhibition turned out to be -31.9

So for O=C(NN1C(=O)CSC1c1ccc(F)cc1)c1ccncc1 (configuration not stated) , the logged growth inhibition turned out to be 7.95

So for C/C(N=NC(=S)N1CCCC1)=C1\C=CC=CN1O , the logged growth inhibition turned out to be 7.95

* * *

protocol: NCI Yeast Anticancer Drug Screen. Data for the mlh1 rad18 strain (AID 175)
measurement.context: S. cerevisiae mlh1 rad18 strain growth inhibition; at 50.0 µM; hits give high values
About 79,000 compounds went through this panel and 15% of them were active in at least one assay; those are over-represented in the sample as a whole.
measured.metric: growth inhibition (%)
Number only, in %; omit the unit.

Examples with answers:
COC(=O)CCc1c[nH]c2ccc(N)cc12; -13.7
COC(=O)/C(C#N)=C\N1CCNC1=S; -19.5
CSCCC(NC(c1ccccc1)c1ccccc1)[P+](=O)O (configuration not stated); -40.1

So for O=C(Nc1ccc(O)cc1)c1ccccc1O , the logged growth inhibition turned out to be 1.25

So for N#CC(N)=NC1CCC(C2CCC(O)CC2)CC1 (configuration not stated) , the logged growth inhibition turned out to be 10.7

So for C/C(CC(=O)Nc1ccc(C)cc1)=N\NC(N)=S , the logged growth inhibition turned out to be -19.6

So for CCOC(=O)CC(C(=O)OCC)C(C(=O)OCC)C(=O)OCC (configuration not stated) , the logged growth inhibition turned out to be 13.6

So for O=[n+]1c(-c2ccccc2)c(-c2ccccc2)n([O-])c2cc3ccccc3cc21 , the logged growth inhibition turned out to be 26.4

* * *

growth inhibition overview
protocol: NCI Yeast Anticancer Drug Screen. Data for the rad50 strain (AID 155);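 also: 0% = growth of vehicle-only cultures of the same strain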
measurement.context: S. cerevisiae rad50 strain growth inhibition; at 50.0 µM; hits give high values
Method: Growth inhibition of yeast strains with defined genetic alterations is measured as a screen for potential anti-cancer activity. Selected strains with alterations in DNA damage repair or cell cycle control were exposed to compounds and growth inhibition was measured relative to vehicle treated controls. The strain used in this assay is rad50
Compounds without any hit were thinned out: in the full panel of roughly 79,000, 15% have a hit.
Number only, in %; omit the unit.

Cc1nc2ccccc2c(=O)n1C; -7.5
O=[N+]([O-])c1ccc2nc(/C=C(\O)c3ccccc3)c(NC34CC5CC(CC(C5)C3)C4)nc2c1; 16.4
CCCCCCCCCCCCCCCCSS(=O)(=O)O; 8.5
CC(C)OC(=O)C(=O)OC(C)C; 14.3
NC(=O)c1ncccc1C(=O)O; -9.2
O=C1CCC(=O)N1Cc1ccc(Cl)cc1; -4.7
CN(C)Cc1c(-c2ccc(Br)cc2)oc(-c2ccc(Br)cc2)c1Br; -31.1
Cc1cccc(-c2nc3sc(-c4cccc(C)n4)nc3s2)n1; -9.7
CCOC(=O)CC1(C)OCCO1; 31.9
CCOC(=O)OCCCc1ccccc1; -8.95

So for CC(=O)Nc1ccc(S(=O)(=O)CO)cc1 , the logged growth inhibition turned out to be 19.4

So for CCC1(CCCCCBr)OCCO1 , the logged growth inhibition turned out to be 13.9

So for CC1CC(=O)c2c(O)ccc(O)c21 (configuration not stated) , the logged growth inhibition turned out to be -6.1

So for N#CCCOCCN1CCN(c2cccc(Cl)c2)CC1 , the logged growth inhibition turned out to be 9.85

So for OCC1C2C=CC(O2)[C@H]1CO (some centres not stated) , the logged growth inhibition turned out to be 1.65

So for COc1ccc2c(c1)CCC1C2CCC2(C)C(=O)C(n3cnc4c(SC)ncnc43)CC12 (configuration not stated) , the logged growth inhibition turned out to be 42.3

So for Cc1ccc(C(=O)Nc2ccc(CP(=O)(O)O)cc2CP(=O)(O)O)cc1N , the logged growth inhibition turned out to be -25.1

So for CN(C=O)/C=C/c1cc(O)ccc1O , the logged growth inhibition turned out to be -0.95

So for Nc1ncnc2c1cnn2Cc1ccccc1 , the logged growth inhibition turned out to be 4.9

So for N[C@H](C(=O)O)[C@H]1ON=C(Cl)[C@@H]1O , the logged growth inhibition turned out to be 7.4

* * *

protocol: NCI Yeast Anticancer Drug Screen. Data for the cln2 rad14 strain (AID 165);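 also: 0% = growth equal to vehicle treated cultures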
measurement.context: S. cerevisiae cln2 rad14 strain, at 50.0 µM, hits give high values
Compounds without any hit were thinned out: in the full panel of roughly 79,000, 15% have a hit.
growth inhibition overview
Number only, in %; omit the unit.

Examples with answers:
O=C1NC(=O)C(=C/C=C/C=C\C2C(=O)NC(=O)NC2=O)C(=O)N1; 2.1
Cc1nc(-n2nc(-c3ccccc3)cc2-c2ccccc2)sc1C(=O)/C=C/c1ccccc1; 9.1
O=c1[nH]c(=O)n(C2CC(O)C(CO)O2)cc1OC/C=C/Cc1ccccc1 (stereo not given); 7.75

So for COc1cccc(C(Nc2nncs2)Nc2nncs2)c1 , the logged growth inhibition turned out to be 13.9

So for Nc1ccc2c(c1)C1C(C3C2C2(Cl)C(Cl)=C(Cl)C3(Cl)C2(Cl)Cl)C2(Cl)C(Cl)=C(Cl)C1(Cl)C2(Cl)Cl (stereo not given) , the logged growth inhibition turned out to be 24.1

So for O=S1(=O)C(Cl)=C(O)c2ccccc21 , the logged growth inhibition turned out to be -22.6

So for CN(C)CC1CCCC(CN(C)C)C1=NOC(=O)c1ccccc1 (stereo not given) , the logged growth inhibition turned out to be -21.4

So for Cc1cc2c(-c3ccc(Cl)cc3)oc(-c3ccc(Cl)cc3)c2cc1C , the logged growth inhibition turned out to be 2.85

So for O=C(NC1CC/C=C(/c2ccccc2)CC(Cl)C1)c1ccccc1 (stereo not given) , the logged growth inhibition turned out to be -3.5
